B1: Pistol ribozyme (parent)
chain: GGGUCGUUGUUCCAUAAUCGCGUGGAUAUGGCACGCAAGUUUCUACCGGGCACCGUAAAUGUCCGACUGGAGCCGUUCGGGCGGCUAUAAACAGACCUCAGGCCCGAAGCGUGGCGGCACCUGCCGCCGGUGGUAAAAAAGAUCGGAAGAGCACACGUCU

variants of: B1; assay: aptazyme ON/OFF ratio, guanine; higher = stronger switching; co-transcriptional cleavage with and without guanine
Let's look at some variants and their measured aptazyme ON/OFF ratio.
Lab note: record just the number, no unit beside it.

change | reported-metric | result-value
U7A U10C U11G C12G C13A | aptazyme ON/OFF ratio | 1.24
U7A U8G U10G U11C C12U C13U | aptazyme ON/OFF ratio | 1.41
U7G U8C U10G C12U C13A | aptazyme ON/OFF ratio | 1.34
U10C | aptazyme ON/OFF ratio | 3.69
U7A U8A G9A U10G C12U C13U | aptazyme ON/OFF ratio | 0.929
G9U U10G U11C C13A | aptazyme ON/OFF ratio | 1.26
U7G U8C G9A U10A U11C C12U C13G | aptazyme ON/OFF ratio | 1.13
U7G U8A G9C U10C U11G C12A C13G | aptazyme ON/OFF ratio | 1
U7G U8G G9A U10C U11G C12A C13U | aptazyme ON/OFF ratio | 1.19
U7C G9U U10G U11G C12A C13A | aptazyme ON/OFF ratio | 1.1

Lab note: measured aptazyme ON/OFF ratio of U7C U8A G9A U10C U11C was 1.02

Lab note: measured aptazyme ON/OFF ratio of U7A G9C U10G U11A C12G C13U was 1.06

Lab note: measured aptazyme ON/OFF ratio of U7A U8G U10C C12A C13U was 1.51

Lab note: measured aptazyme ON/OFF ratio of U7A U8C G9U U10C C13U was 1.19

Lab note: measured aptazyme ON/OFF ratio of U7A U8G G9U U10C U11A C12U C13U was 1.36
